# measurement description: Unbound fraction in brain and plasma
# Format: in vitro ADME
# details: unbound fraction in plasma
outcome measure: fuplasma (%)
State the answer as a number, implicitly in %.

Input CCCCN(Cc1ccc2[nH]ccc2c1)C(=O)c1ccc(S(=O)(=O)Nc2ccccc2)cc1 . Output fuplasma: 1.3

The compound listed as O=C(c1ccc(S(=O)(=O)Nc2ccccc2)cc1)N(Cc1ccc(OCCO)cc1)CC1CC1 has a reported fuplasma of 1.4

Summary for this compound, O=C(c1ccc(S(=O)(=O)Nc2ccccc2)cc1)N(Cc1ccc(NCCO)cn1)CC1CC1 : fuplasma is 8.0

fuplasma for COCCNc1ccc(CN(CC2CC2)C(=O)c2ccc(S(=O)(=O)Nc3ccccc3)cc2)nc1 is 4.7
